PBM binding z-score reference
Tested on: RARg:RXRa (NR concentration 270 nM, RXRa partner concentration 90 nM)
Test: PBM binding z-score (relative to random genomic background probes); higher = stronger binding; sequences stand for … in GC…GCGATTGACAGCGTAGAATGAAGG

Past entries and their recorded results:
| sequence_string | assayed_system | observed_measurement |
| --- | --- | --- |
| GATACAGGGTCAGCTATAGGCCAGAGTATGGAAA | RARg:RXRa (NR concentration 270 nM, RXRa partner concentration 90 nM) | 5.42 |
| ATCTCTAGGTAAGACTCTGTTCAGTGAAGAACGC | RARg:RXRa (NR concentration 270 nM, RXRa partner concentration 90 nM) | -0.0818 |

Returns the measured PBM binding z-score for the input sequence. Input: ATCTCTAGGTTAAGTTCAGTGAAAGATCGATAGA
2.18

Query ATATGTAGTTTAGCTGGGGTCATTCAGACTAGGC next
3.73

For AGGATGAGGTTATTAAGATCAGGGAATTGCGGTC then?
1.41

Another sequence: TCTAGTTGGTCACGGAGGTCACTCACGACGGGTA
4.23

Let us now turn to TCTGCTATGTCAGTTGGTCAGCTAACGAGCTGCC
-0.0925

Can you handle GGAACGAGGGCATTCGAGTCGATAGCATGGCGAT next?
1.01

Next sequence up: CCCAGTTGGTCAAGGTCACACACGCTATAGGTAC
4.75

Try this sequence next: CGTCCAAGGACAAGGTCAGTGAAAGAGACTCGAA
3.17

Moving on to the next sequence: TAGCCTAGGTTATTGGGCCAGTATAGTACGCATC
0.395

Same lookup for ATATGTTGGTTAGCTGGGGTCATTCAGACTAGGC , please.
3.66

What about CGAACTAGGTCTAGGACAGTGAATCTCCGCACGC ?
-0.33

Also GGAACGAGGGCATTCGAGTTGATAGGATGGCGAT , if possible.
1.11

Follow-up item: GTACCAAGGTGAATAGGTCGTTGTTGAGTAGGCG
2.4

Here is the next sequence: ACTTACGTGTCAACGAGGTTATAGCACGCGTATA
1.44

What do you get for TCTTGTAGATCCAAGGTTAAGAAAGCCGAAGCCT ?
0.336

----------
Tested on: PPARg:RXRa 30nM:10nM, anti-RXR (NR concentration 30 nM, RXRa partner concentration 10 nM)
Test: PBM binding z-score (relative to random genomic background probes); higher = stronger binding; sequences stand for … in GC…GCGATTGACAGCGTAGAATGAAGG
Label scheme for PBM binding z-score: lower than 0.5 is false, 0.5 and above is true.

Please check the record CCTACTGGGCCAGAAAGGTCATTGATGCCGATAA and state if its PBM binding z-score is at or above 0.5.
true

Thanks! And GATACAGGGTCAGCTAGACGCCAGAGTATGGAAA ?
true

How about TCAGCCAGGTGAAGGTAACTCAGGTACGCAGTCG ?
true

Moving on to GTACCAAGGTGAATAGGTCGTTTATGAGTAGGCG
true

Now the same for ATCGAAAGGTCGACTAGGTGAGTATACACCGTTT
true

Now give it for CGTACTGGGCCATCAGGTCATTGATATCAACGTT too.
true

Further, for GCGATTAGTTGAAAGGGCAACCGAATGATTCTCG ?
true

Similarly, TCTTGTAGATCAATACAGGTTAAGAAAGTGCGCT ?
true

And then CCTACTTGGCCATTCAGAGGTCATTGATCATATG , what is it?
true

For CCTTCTGGGCCAAAGGTCATTGATTCCAATGCTC then?
true

----------
Tested on: LXRa homodimer (NR concentration 270 nM)
Assay: PBM binding z-score (relative to random genomic background probes); higher = stronger binding; sequences stand for … in GC…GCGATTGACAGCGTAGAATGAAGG
PBM binding z-score: recorded values

Check out these entries, answers already filled in.
| sequence_string | PBM binding z-score |
| --- | --- |
| GCGACTGGGGCAAAGCAGGCTACCATAAGGTTGG | -0.699 |
| CCTAGCAGGCCAATCTGGGTAACTCAAGGCTTGA | -0.736 |
| CCTACTGGGCCACGAAGGGTCATTGATTCAGTGA | 0.54 |
| CCTACTGGGCCATCAGGTCGTTGATATCAACGTT | -0.231 |
| CCTAGTTGGTCAGGAGGTCACACAGCGGATATGA | 2.17 |
| TCATATACGTAAAAGGTGAAAGTCGGTGTGGTAA | 0.215 |
| CCTACTGGCCCATCAGGTCATTGATATCAACGTT | 1.15 |
| GCTATAAGTTGAAAGGGCAACCGAATGATTCTCG | 0.185 |

Which value of PBM binding z-score has been reported for ATCTCTAGGTAACAAGTTCGGTGAAAGAGAGGAC in the records?
0.56

Record: CCTAGTTGGTCAGGAGGTCATACACCGGATATGA
2.79

Moving on to the next sequence: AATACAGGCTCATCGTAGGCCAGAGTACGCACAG
-0.211

Can you check TCGAGTAGGTTACCAATGGGGCTTTCAGCTTTCT next?
-1.06

# iterate: CGAACTAGGTCAAGGACACTGAATCTCCGCACGC
0.392

Subsequent entry: TCATATAGGTAAAGGTGCAAGTCGAACGATATGA
-0.176

----------
Test system: VDR homodimer (NR concentration 270 nM)
Assay: PBM binding z-score (relative to random genomic background probes); higher = stronger binding; sequences stand for … in GC…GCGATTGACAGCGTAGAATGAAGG
Property: PBM binding z-score; scope: individual sequences
Enter the number alone.

| sequence_string | PBM binding z-score |
| --- | --- |
| TCATATAGGTAATACAGGTGATAGTCGGCATCTA | -0.0181 |
| CCGACTGGGGCAAACGTTACCATACTCAGTACGA | -0.371 |
| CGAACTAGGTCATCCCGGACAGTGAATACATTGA | 1.91 |
| ACTAGCAGTCCAAGTTTGGGTCACTCAAACAAAG | 0.0671 |
| CTCGAAAGGTCGGTTGAGGCGAGTATACGGATAA | -0.121 |

Bench note: what PBM binding z-score did ATACCAAGGTGATCGTGAGGTCGTTGACACTAAC show?
2.93

For CCTTACGGGTCACGAGGTTATATCACGACGAGCG then?
2.09

Repeat for the following sequence: CGTCCAAGGTCATAGGTCAGTGAAGAGATGACGG
3.51

Ok, now ATAGAAAGGTCGTGAGGTGAGTATACAGAAAGGC
1.31

Input CCGACTGGGGCATCAGGTTACCATAAGCCAGCCC
-0.423

Next up: ATCGAAAGCTCGAGGTGAGTATAGAGAAAGGGAA
-0.71

Now give it for CCTATTAGTTCACCATAAGGGCAACCGAAGCTCG too.
2.41

Likewise for GCGACTGGGGCGTCAGCAGGTTACCATAACTTAA ?
-0.488

----------
Test system: FXR:RXRa (NR concentration 270 nM, RXRa partner concentration 90 nM)
Experiment: PBM binding z-score (relative to random genomic background probes); higher = stronger binding; sequences stand for … in GC…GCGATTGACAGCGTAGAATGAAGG
measured_endpoint: PBM binding z-score
Returns: the value as a bare number; no unit string appended.

Sample answers from the record:
| sequence_string | PBM binding z-score |
| --- | --- |
| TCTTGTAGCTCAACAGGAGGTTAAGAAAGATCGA | -0.163 |
| TCGAGTAGGTTAGTCGGGGCATTCTGCCAACATA | -0.351 |
| AGTCAAAGTACACTAGGTAACGTAAGATTCAGCT | -0.108 |
| CCTCGGAGGACAGCAGGAGGTCAGAGCTGCCAGA | 0.706 |
| ATATGTACGTTATCGGGTCATTCAGTTTGCGCAT | 2.05 |

Could you now consider this next sequence?
Fill blank: measured PBM binding z-score of the sequence CGAACTATGTCATCCAGGACAGTGAATACATTGA is ____.
0.102

----------
Tested on: LXRa:RXRa (NR concentration 270 nM, RXRa partner concentration 90 nM)
Assay: PBM binding z-score (relative to random genomic background probes); higher = stronger binding; sequences stand for … in GC…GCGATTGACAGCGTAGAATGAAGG
Listed next: entries and their corresponding PBM binding z-score.
Simply state the number, no unit and no words.

| sequence_string | observed_measurement |
| --- | --- |
| ACTAGTTGGTCAGCTGAGGTCACTCACAATTCGG | 2.57 |

Any idea what its PBM binding z-score is? The sequence is ATATGTAGGTTAGCTGGGGTCATTCGGACTAGGC
5.8

Quick one: CTCGACAGGTCGGTTGAGGTGAGTATACGGATAA
-0.211

Do the same for CCTCGGAGAACAGAAGGTCAGAGCTGTCCGCTTT please
1.7
